- measurement_description: inhibitors of CMV-promoter luciferase reporter, dose response, counter-screen for Pax8 inhibitor project, cell-based, HEK293, luminescence, dry powder (AID 743020);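 further: HEK293 cells stably expressing the CMV luciferase reporter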
- study_conditions: SteadyGlo luminescence, 24 h; series mostly up to 35 µM
Potency and affinity values are given separately. Results filed as inconclusive are left out. Activity calls are given as the source filed them.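 How the source made its calls: active means signal-lowering compounds whose fitted half-maximal concentration is at or below twice the top tested dose in every run; inconclusive means runs disagree, flat 30 to 70% inhibition, or poor curve fit; inactive means the rest.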
property_name: activity change, negative = inhibition

1) CC(C)CC#Cc1ccc2c(c1)O[C@@H](CN(C)Cc1ccncc1)[C@H](C)CN([C@@H](C)CO)S2(=O)=O :: inactive
2) C[C@@H]1CN([C@@H](C)CO)C(=O)c2cc(NC(=O)c3ccccc3)ccc2O[C@@H](C)CCCCO[C@H]1CN(C)Cc1ccc(C(F)(F)F)cc1 :: inactive
3) COc1ccc(S(=O)(=O)Nc2ccc3c(c2)C(=O)N([C@H](C)CO)C[C@H](C)[C@@H](CN(C)S(=O)(=O)c2ccc(C)cc2)OCCCC[C@H](C)O3)cc1 :: inactive

---

- measurement_description: yeast growth modulation, basal conditions, primary screen, YJM789 clinical isolate, OD600, 24 h (AID 1089);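 further: growth of clinical yeast isolate S. cerevisiae YJM 789 seeded 1000 cells per well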
- study_conditions: S. cerevisiae YJM789 growth, higher = more signal, called active from +8 up or from −8 down
property_name: z-score
Numbers only.

1) CC(C)C(=C=CC[C@@H](O)c1ccc(CO)o1)CCO :: 1.15
2) O=C(NO)[C@]1(Cc2ccccc2)N=C(c2ccc(OCCCO)cc2)O[C@@H]1c1ccccc1 :: -4.96
3) O=C(NCc1ccccc1)[C@@H]1c2ccccc2C(=O)N(Cc2ccccc2Cl)[C@H]1c1ccc(CO)cc1 :: -0.21
4) C=CCC(OC(C)=O)[C@@H]1[C@@H](N(Cc2cccc3ccccc23)C(=O)c2cccc3ccccc23)c2cc(OCCCO)ccc2N1C(=O)Cc1ccc(OC)cc1 (stereo partly drawn) :: -1.17
5) COCCOC(=O)N1C(=O)[C@@]2(c3ccccc31)[C@H](C(=O)Nc1nc3ccccc3s1)[C@H]1C(=O)O[C@H](c3ccccc3)[C@H](c3ccccc3)N1[C@@H]2c1ccc(O)cc1 :: 3.43
6) COC(=O)c1c2oc(c1C(=O)OC)C(=O)N[C@@H](C(C)C)Cn1nncc1C1(CCCCC1)NC(=O)N[C@H](CO)CC2 :: 0.0957
7) COC(=O)C1=CC(CCCO)=CC(C2CC2)N(Cc2cc3c(cc2Br)OCO3)C=C1C(=O)OC (stereo not drawn) :: -1.04

What measured z-score goes with NCCCCCCNC(=O)[C@@H]1C[C@@H]2C(=O)N[C@@H](Cc3ccccc3)C(=O)N2[C@@H]1c1ccc(O)cc1 ? -0.507

---

Consider the following compounds; for each one, report its composite z-score.
- System: XIP peptide (Xip251-270) binding
- measurement_description: small-molecule binders of XIP peptide, primary screen, biochemical, small-molecule microarray, fluorescence 635/667 nm, 0.1 µg/mL protein (AID 1182)
- study_conditions: fluorescent protein binding, 635 nm, higher = more signal, called active from +8 up or from −8 down
One number for each entry.

The cases that follow already have their composite z-score on record.
1) C=CCN1C(=O)[C@@]2(O[C@@H](CCO)[C@H]([Si](C)(C)c3ccc(OC)cc3)[C@H]2C)c2cc(N3C(=O)c4cccc5cccc3c45)ccc21 :: 0.777
2) CC(C)C[C@@H]1NC(=O)[C@@H]2C[C@H](C(=O)NCCCCCNC(=O)CS)[C@H](c3cccc(OCCO)c3)N2C1=O :: 1.58
3) CC(C)C[C@@H]1NC(=O)[C@@]23C(=O)N[C@@H](Cc4ccccc4)C2[C@H](C)[C@@]2(C)O[C@H]2C3/C=C/CC/C=C/CNC(=O)[C@@H](C)NC1=O (stereo partly specified) :: -0.804
4) COC(=O)c1c2oc(c1C(=O)OC)C(=O)N[C@@H](C(C)C)Cn1nncc1C1(CCCCC1)NC(=O)N[C@H](CO)CC2 :: -0.503
5) CCCCCCC#C[Si](O[C@H](c1ccccc1)c1cn(Cc2ccccc2)nn1)(C(C)C)C(C)C :: 0.663

Kindly give each listed record's composite z-score.
1. Cc1ccc(N2C(=O)c3ccccc3[C@](C)(C(=O)NCC(F)(F)F)[C@@H]2c2ccc(CO)cc2)nc1
2. COc1ccc(C#Cc2ccc3c(c2)[C@]2(C(=O)N3)[C@H](c3ccc(O)cc3)N3[C@H](c4ccccc4)[C@H](c4ccccc4)OC(=O)[C@H]3[C@@H]2C(=O)N2CCN(c3ncccn3)CC2)cc1
3. COC(=O)C(CC#Cc1ccc2c(c1)[C@]1(C(=O)N2)[C@H](C(N)=O)[C@H]2C(=O)O[C@H](c3ccccc3)[C@H](c3ccccc3)N2[C@@H]1c1ccc(O)cc1)C(=O)OC

-0.0838
1.62
1.07

Kindly give each listed record's composite z-score.
1. C=C(CCCC)/C(=C/C[C@@H](OC(=O)c1ccncc1)c1ccc(OCCO)cc1)c1cnc2ccccc2c1
2. O=C1N(CCS(=O)(=O)c2ccccc2)Cc2ccccc2[C@@H]2OC(c3ccc(OCCCO)cc3)=N[C@]12Cc1ccccc1

0.384
1.73

Kindly give each listed record's composite z-score.
1. CCCCC(=C=CC[C@@H](O)c1ccc(OCCO)cc1)C[C@@H](O)c1cc(Cl)cc(Cl)c1O
2. CC(C)CNC(=O)[C@@H]1c2ccccc2C(=O)N(Cc2ccc(OC(F)(F)F)cc2)[C@H]1c1ccc(CO)cc1
3. C=CCC(OC(C)=O)[C@@H]1[C@@H](N(Cc2ccc(-c3cccc(C(F)(F)F)c3)o2)C(=O)c2ccc(-c3ccccc3)cc2)c2cc(OCCCO)ccc2N1C(=O)Cc1ccc(OC)cc1 (stereo partly specified)
4. COc1c(C)cc(-c2cc3c(c(CCc4ccccc4)n2)[Si](C(C)C)(C(C)C)OC3)cc1C
5. C=CCC(OC(C)=O)[C@@H]1[C@@H](N(Cc2cccc3ccccc23)C(=O)c2cccc3ccccc23)c2cc(OCCCO)ccc2N1C(=O)Cc1ccc(OC)cc1 (stereo partly specified)
6. COc1ccc([Si](C)(C)[C@H]2[C@H](CC(=O)N3Cc4ccccc4C[C@H]3CO)O[C@@]3(C(=O)N(Cc4cccc(N5C(=O)COc6ccccc65)c4)c4ccccc43)[C@@H]2C)cc1

1. 0.925
2. 0.0114
3. 0.163
4. 0.461
5. 0.936
6. 1.83

Kindly give each listed record's composite z-score.
1. C=CCOC(=O)[C@H]1[C@@H]2C(=O)O[C@@H](c3ccccc3)[C@@H](c3ccccc3)N2[C@@H](c2ccc(OCCOC(=O)[C@H]3C[C@H]4C(=O)N5CCC[C@H]5C(=O)N4[C@H]3c3cccc(OCCO)c3)cc2)[C@]12C(=O)Nc1ccccc12
2. C=C(C(=O)CC[C@H](OC(C)=O)c1ccc(CO)o1)C(C)C
3. Cc1ccc(S[C@]2(C(=O)NCCN3CCOCC3)CC(=O)N(Cc3cc(C(F)(F)F)cc(C(F)(F)F)c3)[C@@H]2c2ccc(CO)cc2)cc1
4. C=CCNC(=O)[C@@H]1[C@H]2C(=O)O[C@H](c3ccccc3)[C@H](c3ccccc3)N2[C@H](c2ccc(O)cc2)[C@@]12C(=O)Nc1ccccc12
5. CC(C)N1CC=CC23O[C@@H]4/C=C\CCCOC(=O)C4[C@H]2C(=O)N(CCCO)[C@@H]3C1=O (stereo partly specified)
6. CCOC(=O)C[C@H]1[C@H](OC(=O)c2ccc(-c3ccccc3)cc2)[C@@H](NC(=O)C2CCCCC2)c2cc(OCCCO)ccc2N1C(=O)c1ccc2ccccc2n1
7. COc1ccc([Si](C)(C)[C@@H]2[C@@H](CC(=O)N3CCC[C@H]3CO)O[C@]3(C(=O)N(Cc4ccc(I)cc4)c4ccccc43)[C@H]2C)cc1
8. CCCCCN1CC=CC23O[C@@H]4/C=C\CCC(C)OC(=O)C4[C@H]2C(=O)N(CCCO)[C@@H]3C1=O (stereo partly specified)

1.33
2.48
-0.316
0.768
0.015
0.29
0.564
0.156

Kindly give each listed record's composite z-score.
1. CC(C)C[C@@H]1NC(=O)[C@H]2C[C@@H](C(=O)NCCCC[N+](C)(C)C)[C@@H](c3cccc(OCCO)c3)N2C1=O
2. COc1ccc([Si](C)(C)[C@@H]2[C@@H](CCn3cc(CCO)nn3)O[C@]3(C(=O)N(Cc4ccc(N5C(=O)c6cccc7cccc5c67)cc4)c4ccccc43)[C@H]2C)cc1

1: 1.85; 2: 0.437
